experiment: Plasma pharmacokinetics after single and multiple oral doses; assay type: in vivo, human; conditions: human, plasma, oral, 100 mg, T max, MAD 100 mg q.d., Day 14, n=7; median (range)
ASSAY_METRIC: Tmax (h)

In [3]: df
Out[3]:
                           smiles_structure  result_value
0  O=C(c1nc2n(n1)[C@H](c1ccccc1)C[C@@H]2F)C1CC1           2.5

###

experiment: Plasma pharmacokinetics after single and multiple oral doses; type: in vivo, human; conditions: human, plasma, oral, 100 mg, C max, MAD 100 mg q.d., Day 14, n=7; geometric mean (geometric CV%)
ASSAY_METRIC: Cmax (ng/mL)

>>> df
                           smiles_structure  unit_descriptor  result_value
0  O=C(c1nc2n(n1)[C@H](c1ccccc1)C[C@@H]2F)C1CC1            ng/mL          1660

###

assay: Plasma pharmacokinetics after single and multiple oral doses; format: in vivo, human; conditions: human, plasma, oral, 50 mg, C max, MAD 50 mg q.d., Day 1, n=5; geometric mean (geometric CV%)
ASSAY_METRIC: Cmax (ng/mL)

                                   compound  assay_metric  result_value
0  O=C(c1nc2n(n1)[C@H](c1ccccc1)C[C@@H]2F)C1CC1 [GDC‐8264]          Cmax           610

###

experiment: Plasma pharmacokinetics after single and multiple oral doses; assay type: in vivo, human; settings: human, plasma, oral, median T max, SAD 75-225-mg doses (tablet formulation)
ASSAY_METRIC: Tmax

In [3]: df
Out[3]:
                           smiles_structure  result_value
0  O=C(c1nc2n(n1)[C@H](c1ccccc1)C[C@@H]2F)C1CC1      3 to 4 h

###

assay: Plasma pharmacokinetics after single and multiple oral doses; assay type: in vivo, human; details: human, plasma, oral, 50 mg, V z/F, MAD 50 mg q.d., Day 14, n=5; geometric mean (geometric CV%)
ASSAY_METRIC: Vd/F (L)

>>> print(df.to_string())
                           smiles_structure  assay_metric  result_value
0  O=C(c1nc2n(n1)[C@H](c1ccccc1)C[C@@H]2F)C1CC1          Vd/F          80.3

###

experiment: Plasma pharmacokinetics after single and multiple oral doses; assay type: in vivo, human; conditions: human, plasma, oral, median T max, SAD 5- and 25-mg doses (suspension formulation)
ASSAY_METRIC: Tmax

In [3]: df
Out[3]:
                                   compound  assay_metric  result_value
0  O=C(c1nc2n(n1)[C@H](c1ccccc1)C[C@@H]2F)C1CC1 [GDC‐8264]          Tmax  1.3 to 1.9 h

###

assay: Plasma pharmacokinetics after single and multiple oral doses; format: in vivo, human; settings: human, plasma, oral, 100 mg, AUC0-τ, MAD 100 mg q.d., Day 14, n=7; geometric mean (geometric CV%)
ASSAY_METRIC: AUC (ng·h/mL)

>>> df
                           smiles_structure  assay_metric  result_value
0  O=C(c1nc2n(n1)[C@H](c1ccccc1)C[C@@H]2F)C1CC1           AUC         21200

###

assay: Plasma pharmacokinetics after single and multiple oral doses; format: in vivo, human; details: human, plasma, oral, 50 mg, AUC0-τ, MAD 50 mg q.d., Day 1, n=5; geometric mean (geometric CV%)
ASSAY_METRIC: AUC (ng·h/mL)

>>> df
                           smiles_structure  unit_descriptor  result_value
0  O=C(c1nc2n(n1)[C@H](c1ccccc1)C[C@@H]2F)C1CC1          ng·h/mL          7270

###

assay: Plasma pharmacokinetics after single and multiple oral doses; type: in vivo, human; details: human, plasma, oral, mean half-life, tablet formulation
ASSAY_METRIC: half-life

                                   compound  result_value
0  O=C(c1nc2n(n1)[C@H](c1ccccc1)C[C@@H]2F)C1CC1 [GDC‐8264]    11 to 13 h

###

assay: Plasma pharmacokinetics after single and multiple oral doses; type: in vivo, human; conditions: human, plasma, oral, 50 mg, T max, MAD 50 mg q.d., Day 1, n=5; median (range)
ASSAY_METRIC: Tmax (h)

>>> df
                           smiles_structure  result_value
0  O=C(c1nc2n(n1)[C@H](c1ccccc1)C[C@@H]2F)C1CC1             3

###

assay: Plasma pharmacokinetics after single and multiple oral doses; assay type: in vivo, human; details: human, plasma, oral, 100 mg, C24, MAD 100 mg q.d., Day 1, n=7; geometric mean (geometric CV%)
ASSAY_METRIC: concentration at 24 h (ng/mL)

>>> df
                           smiles_structure  unit_descriptor  result_value
0  O=C(c1nc2n(n1)[C@H](c1ccccc1)C[C@@H]2F)C1CC1            ng/mL           342

###

assay: Plasma pharmacokinetics after single and multiple oral doses; format: in vivo, human; conditions: human, plasma, oral, 100 mg, AUC0-τ, MAD 100 mg q.d., Day 1, n=7; geometric mean (geometric CV%)
ASSAY_METRIC: AUC (ng·h/mL)

                                   compound  unit_descriptor  result_value
0  O=C(c1nc2n(n1)[C@H](c1ccccc1)C[C@@H]2F)C1CC1 [GDC‐8264]          ng·h/mL         16200

###

assay: Plasma pharmacokinetics after single and multiple oral doses; assay type: in vivo, human; details: human, plasma, oral, 50 mg, C max, MAD 50 mg q.d., Day 14, n=5; geometric mean (geometric CV%)
ASSAY_METRIC: Cmax

                           smiles_structure  result_value
0  O=C(c1nc2n(n1)[C@H](c1ccccc1)C[C@@H]2F)C1CC1     836 ng/mL

###

assay: Plasma pharmacokinetics after single and multiple oral doses; type: in vivo, human; conditions: human, plasma, oral, 50 mg, t 1/2, MAD 50 mg q.d., Day 14, n=5; geometric mean (geometric CV%)
ASSAY_METRIC: half-life (h)

                           smiles_structure  result_value
0  O=C(c1nc2n(n1)[C@H](c1ccccc1)C[C@@H]2F)C1CC1          11.2

###

test: Plasma pharmacokinetics after single and multiple oral doses; format: in vivo, human; details: human, plasma, oral, 100 mg, C max, MAD 100 mg q.d., Day 1, n=7; geometric mean (geometric CV%)
ASSAY_METRIC: Cmax (ng/mL)

                           smiles_structure  result_value
0  O=C(c1nc2n(n1)[C@H](c1ccccc1)C[C@@H]2F)C1CC1          1180

###

test: Plasma pharmacokinetics after single and multiple oral doses; assay type: in vivo, human; settings: human, plasma, oral, 50 mg, C24, MAD 50 mg q.d., Day 1, n=5; geometric mean (geometric CV%)
ASSAY_METRIC: concentration at 24 h (ng/mL)

                           smiles_structure           assay_metric  result_value
0  O=C(c1nc2n(n1)[C@H](c1ccccc1)C[C@@H]2F)C1CC1  concentration at 24 h           151

###

test: Plasma pharmacokinetics after single and multiple oral doses; format: in vivo, human; conditions: human, plasma, oral, 50 mg, T max, MAD 50 mg q.d., Day 14, n=5; median (range)
ASSAY_METRIC: Tmax (h)

                                   molecule  assay_metric  result_value
0  O=C(c1nc2n(n1)[C@H](c1ccccc1)C[C@@H]2F)C1CC1 [GDC‐8264]          Tmax           2.5

###

test: Plasma pharmacokinetics after single and multiple oral doses; assay type: in vivo, human; conditions: human, plasma, oral, 100 mg, V z/F, MAD 100 mg q.d., Day 14, n=7; geometric mean (geometric CV%)
ASSAY_METRIC: Vd/F (L)

                           smiles_structure  result_value
0  O=C(c1nc2n(n1)[C@H](c1ccccc1)C[C@@H]2F)C1CC1          77.4

###

assay: Plasma pharmacokinetics after single and multiple oral doses; type: in vivo, human; details: human, plasma, oral, 100 mg, T max, MAD 100 mg q.d., Day 1, n=7; median (range)
ASSAY_METRIC: Tmax (h)

                                   compound  unit_descriptor  result_value
0  O=C(c1nc2n(n1)[C@H](c1ccccc1)C[C@@H]2F)C1CC1 [GDC‐8264]                h             3

Data origin: paper PMC10582670
